Test system: Helicoverpa armigera
Settings: 500 μg/mL; 48 hours
attribute measured: mortality(%) Helicoverpa armigera (500 μg/mL)
Answers are plain numbers, in %.

Take a look at these entries with their results.
CNC(=N[N+](=O)[O-])NN=CC(C)C :: 40
C#CCNC(=N[N+](=O)[O-])NN=CCC :: 50
C=CCNC(=N[N+](=O)[O-])NN=CCCCCCC :: 0
C=CC=NNC(=N[N+](=O)[O-])NCc1ccccc1 :: 30
O=[N+]([O-])N=C(NCc1ccc(Cl)nc1)NN=Cc1ccccc1 :: 0
CCCCCCC=NNC(=N[N+](=O)[O-])NCCC :: 20
C=CCNC(=N[N+](=O)[O-])NN=CC=CC :: 20
CCCCNC(=N[N+](=O)[O-])NN=CC(C)C :: 10
CCCCNC(=N[N+](=O)[O-])NN=Cc1ccccc1OC :: 0
C#CCNC(=N[N+](=O)[O-])NN=CC=C :: 40

# return mortality(%) Helicoverpa armigera (500 μg/mL) for each item in the list
1. C#CCNC(=N[N+](=O)[O-])NN=Cc1ccccc1OC
2. C#CCNC(=N[N+](=O)[O-])NN=CCCC
3. C=CCNC(=N[N+](=O)[O-])NN=CCCCC
4. C#CCNC(=N[N+](=O)[O-])NN=CC=CC

Result ::
1. 30
2. 60
3. 40
4. 30

# return mortality(%) Helicoverpa armigera (500 μg/mL) for each item in the list
1. C#CCNC(=N[N+](=O)[O-])NN=CCCCC
2. CCCC=NNC(=N[N+](=O)[O-])NCCCC
3. C=CC=NNC(=N[N+](=O)[O-])NCC
4. CCCC=NNC(=N[N+](=O)[O-])NCc1ccccc1
5. C=CC=NNC(=N[N+](=O)[O-])NCC=C
6. CC=CC=NNC(=N[N+](=O)[O-])NCCCC
7. CCCCCCC=NNC(=N[N+](=O)[O-])NCCCC

Result ::
[40, 20, 20, 60, 20, 40, 20]

###

System: myzus persicae
Details: in vivo
attribute measured: mortality(%) myzus persicae (600 μg/mL)
Give bare numbers, in %.

Take a look at these entries with their results.
CCCC=NNC(=N[N+](=O)[O-])NCC :: 4.7
CC=CC=NNC(=N[N+](=O)[O-])NCc1ccc(Cl)nc1 :: 1.2

Turning to the following molecule.
Query :: Requested field: mortality(%) myzus persicae (600 μg/mL). Item: C#CCNC(=N[N+](=O)[O-])NN=CCCCC
Result :: 47.6

###

Give mortality(%) bemisia tabaci gennadius (500 μg/mL) for every item shown.
Tested on: bemisia tabaci gennadius
Conditions: in vivo
Hi, when you answer, please include the unit after the number. Thanks!

Take a look at these entries with their results.
O=[N+]([O-])N=C(NCc1ccc(Cl)nc1)NN=Cc1ccco1 :: 9.30%
COc1ccc(C=NNC(=N[N+](=O)[O-])NCc2ccccc2)cc1 :: 1.89%
O=[N+]([O-])N=C(NCc1ccc(Cl)nc1)NN=Cc1ccc(F)cc1 :: 2.04%
CNC(=N[N+](=O)[O-])NN=Cc1ccccc1Cl :: 17.78%
CCCNC(=N[N+](=O)[O-])NN=Cc1ccc(OC)cc1 :: 18.46%

# return mortality(%) bemisia tabaci gennadius (500 μg/mL) for each item in the list
1. CNC(=N[N+](=O)[O-])NN=Cc1ccc(N(C)C)cc1
2. CNC(=N[N+](=O)[O-])NN=Cc1cccc(Oc2ccccc2)c1
3. CCOc1ccc(C=NNC(=N[N+](=O)[O-])NCc2ccc(Cl)nc2)cc1OC
4. O=[N+]([O-])N=C(NCc1ccc(Cl)nc1)NN=Cc1ccccc1Cl
5. CNC(=N[N+](=O)[O-])NN=Cc1ccco1
6. CNC(=N[N+](=O)[O-])NN=Cc1ccc(OC)cc1

Result ::
1. 82.76%
2. 14.81%
3. 1.82%
4. 13.89%
5. 88.68%
6. 16.95%

###

System: asparagus caterpillar
Conditions: in vivo
Outcome: rule met for mortality(%) asparagus caterpillar (500 μg/mL) of at least 30%; rule not met for anything lower.

COc1ccccc1C=NNC(=N[N+](=O)[O-])NCc1ccc(Cl)nc1 [Compound 109] :: rule met

Query :: Decide: is the reported value of mortality(%) asparagus caterpillar (500 μg/mL) for CCCCNC(=N[N+](=O)[O-])NN=Cc1ccc(OCC)c(OC)c1 [Compound 97] equal to or greater than 30%?
Result :: rule met

###

Give mortality(%) myzus persicae (600 μg/mL) for every item shown.
Test system: myzus persicae
Conditions: in vivo
Answers are plain numbers, in %.

# return mortality(%) myzus persicae (600 μg/mL) for each item in the list
1. C=CC=NNC(=N[N+](=O)[O-])NCCCC
2. CCOc1ccc(C=NNC(=N[N+](=O)[O-])NCc2ccccc2)cc1OC
3. C#CCNC(=N[N+](=O)[O-])NN=CCCCCCC
4. CCCCCCC=NNC(=N[N+](=O)[O-])NCCC
5. CCCCNC(=N[N+](=O)[O-])NN=Cc1ccccc1Cl
6. CCCC=NNC(=N[N+](=O)[O-])NCc1ccc(Cl)nc1
7. C#CCNC(=N[N+](=O)[O-])NN=Cc1ccc(F)cc1

Result ::
[74.7, 13.3, 13.0, 16.9, 1.2, 80.7, 31.6]

Query :: Requested field: mortality(%) myzus persicae (600 μg/mL). Item: CCCCNC(=N[N+](=O)[O-])NN=Cc1ccccc1OC
Result :: 40.4

###

Test system: Helicoverpa armigera
Conditions: 500 μg/mL; 48 hours
Give mortality(%) Helicoverpa armigera (500 μg/mL) for every item shown.
Hi, when you answer, please include the unit after the number. Thanks!

CCCC=NNC(=N[N+](=O)[O-])NCCC :: 50%
CCCCC=NNC(=N[N+](=O)[O-])NCCCC :: 20%
C#CCNC(=N[N+](=O)[O-])NN=CCCCCCC :: 30%

# return mortality(%) Helicoverpa armigera (500 μg/mL) for each item in the list
1. CCCNC(=N[N+](=O)[O-])NN=CC(C)C
2. C=CC=NNC(=N[N+](=O)[O-])NCCC
3. Cc1ccc(C=NNC(=N[N+](=O)[O-])NCc2ccc(Cl)nc2)cc1
4. CC=CC=NNC(=N[N+](=O)[O-])NC
5. CCCCCCC=NNC(=N[N+](=O)[O-])NCc1ccccc1

Result ::
["30%", "30%", "10%", "60%", "50%"]

# return mortality(%) Helicoverpa armigera (500 μg/mL) for each item in the list
1. COc1ccccc1C=NNC(=N[N+](=O)[O-])NCc1ccccc1
2. CCCC=NNC(=N[N+](=O)[O-])NCC

Result ::
1: 30%; 2: 40%

Query :: Requested field: mortality(%) Helicoverpa armigera (500 μg/mL). Item: C=CCNC(=N[N+](=O)[O-])NN=CCCC
Result :: 30%

###

Tested on: asparagus caterpillar
Conditions: in vivo
attribute measured: mortality(%) asparagus caterpillar (500 μg/mL)
Answers are plain numbers, in %.

# return mortality(%) asparagus caterpillar (500 μg/mL) for each item in the list
1. CCCCNC(=N[N+](=O)[O-])NN=CC(C)C
2. C=CC=NNC(=N[N+](=O)[O-])NCc1ccccc1
3. CC(C)=CCCC(C)=CC=NNC(=N[N+](=O)[O-])NCc1ccccc1
4. C=CCNC(=N[N+](=O)[O-])NN=Cc1ccc(OCC)c(OC)c1
5. CC=CC=NNC(=N[N+](=O)[O-])NCCCC
6. CCC=NNC(=N[N+](=O)[O-])NCCCC

Result ::
20
0
20
30
60
50
